Recorded pIC50 by entry
# subject of test: E1-E2-DNA complex (Human papillomavirus 11)
# Sequence (P04015 whole entry, one chain of several): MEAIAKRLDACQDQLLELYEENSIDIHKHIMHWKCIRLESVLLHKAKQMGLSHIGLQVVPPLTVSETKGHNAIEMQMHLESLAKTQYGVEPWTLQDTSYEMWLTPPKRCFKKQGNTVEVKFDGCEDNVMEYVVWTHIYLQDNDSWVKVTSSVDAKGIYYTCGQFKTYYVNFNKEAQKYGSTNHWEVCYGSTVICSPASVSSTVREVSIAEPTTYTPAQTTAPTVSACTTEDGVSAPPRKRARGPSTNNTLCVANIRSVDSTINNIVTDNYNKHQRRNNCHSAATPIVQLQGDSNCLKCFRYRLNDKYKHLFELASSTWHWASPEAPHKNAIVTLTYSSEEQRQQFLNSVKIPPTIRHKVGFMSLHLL
# test protocol: E2-dependent E1 DNA binding assay (E1-E2 DNA assay)
# condition set: E1-E2 DNA assay of Example 11, HPV-11
pIC50: −log10 of the molar value.

| molecule | pIC50 |
| --- | --- |
| Cc1cc2c(s1)C(=O)C13OC(c4ccc(Br)c(Br)c4)C(C(=O)Nc4ccc(CNC(=O)OC(C)(C)C)cc4)C1C(=O)OC23O (stereo not shown) [Compound C1003] | 5.30 to 6.30 |
| O=C(Nc1ccc(Cl)cc1)C1C(c2ccc(Cl)c(Cl)c2)OC2(C(=O)c3ccccc3C2=O)C1C(=O)O (stereo not shown) [Compound 1101] | 5.30 to 6.30 |
| Cc1cccc(C2OC3(C(=O)c4ccccc4C3=O)C(C(=O)O)C2C(=O)Nc2ccc3c(c2)OCO3)c1 (stereo not shown) [Compound 1018] | 4.30 to 5.30 |
| COC(=O)C1C(C(=O)Nc2ccc3c(c2)OCO3)C(c2ccc(Cl)cc2)OC12C(=O)c1ccccc1C2=O (stereo not shown) [Compound 1017] | 4.30 to 5.30 |
| CC(=O)c1ccc(NC(=O)C2C(c3ccc(Cl)c(Cl)c3)OC3(C(=O)c4ccc(F)cc4C3=O)C2C(=O)O)cc1 (stereo not shown) [Compound 1106] | 5.30 to 6.30 |
| CC(C)(C)c1ccc(NC(=O)C2C(c3ccc(Br)c(Br)c3)OC3(C(=O)c4ccccc4C3=O)C2C(=O)O)cc1 (stereo not shown) [Compound 1079] | 4.30 to 5.30 |
| O=C(Nc1ccc(NC(=O)C2C(c3ccc(Cl)c(Cl)c3)OC3(C(=O)c4ccccc4C3=O)C2C(=O)O)cc1)c1ccccc1 (stereo not shown) [Compound 1057] | 5.30 to 6.30 |
| O=C(Nc1cc(F)cc(F)c1)C1C(c2ccc(Cl)c(Cl)c2)OC2(C(=O)c3ccccc3C2=O)C1C(=O)O (stereo not shown) [Compound 1096] | 5.30 to 6.30 |
| O=C(Nc1cc2ccccc2cn1)C1C(c2ccc(Cl)c(Cl)c2)OC2(C(=O)c3ccccc3C2=O)C1C(=O)O (stereo not shown) [Compound 1040] | 5.30 to 6.30 |
| COc1ccc2c(c1)C(=O)C1(OC(c3ccc(Cl)c(Cl)c3)C(C(=O)Nc3ccc(C(C)=O)cc3)C1C(=O)O)C2=O (stereo not shown) [Compound 1129] | 4.30 to 5.30 |

---

Recorded IC50 by entry
# subject of test: E1-E2-DNA complex (Human papillomavirus 11)
# test protocol: E2-dependent E1 DNA binding assay (E1-E2 DNA assay)
# condition set: E1-E2 DNA assay of Example 11, HPV-11
quantity kind: IC50

| molecule | subject of test | result value |
| --- | --- | --- |
| O=C(Nc1ccc(N2CCOCC2)cc1)C1C(c2ccc(Br)c(Br)c2)OC2(C(=O)c3ccccc3C2=O)C1C(=O)O (single isomer, unassigned) [Compound A1013] | E1-E2-DNA complex (Human papillomavirus 11) | < 0.5 µM |
| N#Cc1ccc(NC(=O)C2C(c3ccc(Cl)c(Cl)c3)OC3(C(=O)c4ccccc4C3=O)C2C(=O)O)cc1 (stereo not drawn) [Compound 1070] | E1-E2-DNA complex (Human papillomavirus 11) | 0.5 to 5 µM |
| O=C(Nc1ccc(-c2csnn2)cc1)C1C(c2ccc(Br)c(Br)c2)OC2(C(=O)c3ccccc3C2=O)C1C(=O)O (single isomer, unassigned) [Compound A1001] | E1-E2-DNA complex (Human papillomavirus 11) | 5 to 50 µM |

Values from patent EP1345943B1
